Entry source: patent US20230357447A1

# EXPERIMENTAL_TARGET: T1, Anti-CD28 scFv (VH-linker 1-VL) (biotinylated (site not stated))
# T1 construct: biotinylated and captured on neutravidin coated plates in the phage ELISA
# T1 sequence (scFv, as listed by the source): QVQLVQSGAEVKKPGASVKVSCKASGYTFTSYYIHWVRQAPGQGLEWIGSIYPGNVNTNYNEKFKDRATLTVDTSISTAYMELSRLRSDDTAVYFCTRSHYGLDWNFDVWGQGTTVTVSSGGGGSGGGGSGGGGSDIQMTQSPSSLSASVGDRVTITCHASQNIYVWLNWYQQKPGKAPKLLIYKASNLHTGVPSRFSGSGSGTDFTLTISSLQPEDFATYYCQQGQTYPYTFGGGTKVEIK
# METHOD_DESCRIPTION: phage ELISA, captured biotinylated scFv; background signal 0.065
PROPERTY: Phage binding ELISA CD28 scFv signal
Write the value as a bare number.

MDWCPRALWNVCFN [Phage-89]
2.6
ITWCPSSMWNRCFI [Phage-70]
0.379
MDWCPRFLWDECFN [Phage-83]
2.63
MDWCPLYLWNECFN [Phage-24]
2.61
MDWCPSYLWNECFF [Phage-62]
2

Report Phage binding ELISA CD28 scFv signal for MDWCPIHMWADCFA [Phage-69] please.
2.46

Report Phage binding ELISA CD28 scFv signal for MDWCPRDLWSLCFY [Phage-94] please.
2.57
